- TGT: ACCase (Phalaris minor)
- Construct: cytosolic form not separated
- PROTOCOL SUMMARY: […]bicarbonate incorporation into malonyl-CoA
- Format: biochemical
- EXPERIMENTAL SETUP: 1.5 mM ATP, 5 mM acetyl-CoA, 5 mM MgCl2, 15 mM NaH14CO3, pH 8.3, 34 °C; S biotype; table labels herbicide diclofop-methyl, methods say DM acid; read-out: I50
TEST READOUT: IC50 (nM)
Kindly provide the numeric value in nM only, without the unit symbol.

Asked: What IC50 appears in the records for this compound with ACCase (Phalaris minor)? CC(Oc1ccc(Oc2ccc(Cl)cc2Cl)cc1)C(=O)O (stereo not shown)
Given back: 850
